Test system: DND-41 (T-Lymphoblastic Leukemia)
EXPERIMENTAL_PROTOCOL: combination Emax (second highest fraction inhibited in the dose matrix, 72 h); higher = more inhibition; extreme values may be limits of the assay
MEASURED_PROPERTY: combination Emax
One number for each entry.

Look up combination Emax for this molecule: NC1(C(=O)N[C@@H](CCO)c2ccc(Cl)cc2)CCN(c2ncnc3[nH]ccc23)CC1 [Capivasertib] + C[C@@H]1COCCN1C2=NC(=NC(=C2)C3(CC3)[S@](=N)(=O)C)C4=C5C=CNC5=NC=C4 [AZD6738] (first compound max 10 µM, 7x7, partner max 10 µM)
0.886

Using the record for CC1(C)CCC(CN2CCN(c3ccc(C(=O)NS(=O)(=O)c4ccc(NCC5CCOCC5)c([N+](=O)[O-])c4)c(Oc4cnc5[nH]ccc5c4)c3)CC2)=C(c2ccc(Cl)cc2)C1 [Venetoclax] + C=CCn1c(=O)c2cnc(Nc3ccc(N4CCN(C)CC4)cc3)nc2n1-c1cccc(C(C)(C)O)n1 [AZD1775] (first compound max 1 µM, partner max 1 µM) , report its combination Emax.
1

API: the following record is the query input.
Query: combination Emax; subject: CC1(C)CCC(CN2CCN(c3ccc(C(=O)NS(=O)(=O)c4ccc(NCC5CCOCC5)c([N+](=O)[O-])c4)c(Oc4cnc5[nH]ccc5c4)c3)CC2)=C(c2ccc(Cl)cc2)C1 [Venetoclax] + C[C@@H](Nc1cc(F)cc(F)c1)c1cc(C(=O)N(C)C)cc2c(=O)cc(N3CCOCC3)oc12 [AZD8186] (first compound max 1 µM, 7x7, partner max 3 µM)
0.921
